Attribution: patent US9145375B2

experiment: Mouse Plasma Conc.; format: in vivo; settings: given as 'Up to'
valueType: Mouse Plasma Conc.

Qu. Which value of Mouse Plasma Conc. has been reported for "C#CCN(C)Cc1nc2c(O)c(Cl)cc(Cl)c2c(=O)n1CC1CC1" in the records?
Ans. ≤ 942.7 ng/mL

Qu. Which value of Mouse Plasma Conc. has been reported for "O=c1c2c(Cl)cc(Cl)c(O)c2nc(CN2CCCCC2)n1CC1CC1" in the records?
Ans. ≤ 17255.9 ng/mL

Qu. Which value of Mouse Plasma Conc. has been reported for "Br.CCNCc1nc2c(O)c(Cl)cc(Cl)c2c(=O)n1C" in the records?
Ans. ≤ 3330.8 ng/mL

Qu. Which value of Mouse Plasma Conc. has been reported for "CNCc1nc2c(O)c(Cl)cc(Cl)c2c(=O)n1C" in the records?
Ans. ≤ 510.4 ng/mL

Qu. Which value of Mouse Plasma Conc. has been reported for "CN(C)Cc1nc2c(O)c(Cl)cc(Cl)c2c(=O)n1C" in the records?
Ans. ≤ 492.1 ng/mL

###

Test: PK Studies in the Rat
Assay type: in vivo
Conditions: plasma, route and dose not given
Description: Assay 5. Pharmacokinetic Profile The pharmacokinetic profile of test compounds is determined by the following assay: • Intravenous infusion of test compound; 2 mg/Kg in a suitable vehicle is […]; […] up to 24 hours. • Plasma concentrations of test compound are determined by suitable analytical method. [formula] […]
valueType: half-life
Number first, unit second: that is the form wanted.

Qu. Which value of half-life has been reported for CNCc1nc2c(O)c(Cl)cc(Cl)c2c(=O)n1C [Compound F4161] in the records?
Ans. 6.7 h

###

test: PK Studies in the Rat; format: in vivo; conditions: plasma, oral 20 mg/Kg
valueType: Tmax (min)
Give a bare numeral; the unit min is implied.

Qu. Which value of Tmax has been reported for "CCNCc1nc2c(O)c(Cl)cc(Cl)c2c(=O)n1CC" in the records?
Ans. 30

Qu. Which value of Tmax has been reported for "CN(C)Cc1nc2c(O)c(Cl)cc(Cl)c2c(=O)n1C" in the records?
Ans. 22.5

Qu. Which value of Tmax has been reported for "Br.CCNCc1nc2c(O)c(Cl)cc(Cl)c2c(=O)n1C" in the records?
Ans. 45

Qu. Which value of Tmax has been reported for "CCN(CC)Cc1nc2c(O)c(Cl)cc(Cl)c2c(=O)n1CC1CC1" in the records?
Ans. 30

###

target: CYP2C9 (Homo sapiens, UniProt P11712); construct: using a specific substrate approach in human liver microsomes; from tissue; host or cells: human liver microsomes; assay: CYP450 inhibition, specific substrate approach in human liver microsomes: CYP2C9; assay type: in vitro ADME
Sequence (P11712 whole entry): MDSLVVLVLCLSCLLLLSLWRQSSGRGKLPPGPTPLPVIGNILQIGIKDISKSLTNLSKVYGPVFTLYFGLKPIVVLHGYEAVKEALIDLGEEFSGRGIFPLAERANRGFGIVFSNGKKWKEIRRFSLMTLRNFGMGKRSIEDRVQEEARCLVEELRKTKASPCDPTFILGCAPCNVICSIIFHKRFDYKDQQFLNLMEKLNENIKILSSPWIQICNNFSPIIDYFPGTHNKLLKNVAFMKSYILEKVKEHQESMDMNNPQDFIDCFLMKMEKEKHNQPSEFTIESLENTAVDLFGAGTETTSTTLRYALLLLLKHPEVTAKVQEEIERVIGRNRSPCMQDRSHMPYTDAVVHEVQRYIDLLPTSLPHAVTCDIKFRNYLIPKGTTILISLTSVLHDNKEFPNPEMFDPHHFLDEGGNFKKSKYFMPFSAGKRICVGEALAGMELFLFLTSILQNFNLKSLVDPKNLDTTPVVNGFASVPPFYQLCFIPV
valueType: IC50

Qu. Which value of IC50 has been reported for "CCN(CC)Cc1nc2c(O)c(Cl)cc(Cl)c2c(=O)n1CC1CC1" in the records?
Ans. > 30 µM

Qu. Which value of IC50 has been reported for "CN(C)Cc1nc2c(O)c(Cl)cc(Cl)c2c(=O)n1C" in the records?
Ans. > 30 µM

Qu. Which value of IC50 has been reported for "CN(C)Cc1nc2c(O)c(Cl)cc(Cl)c2c(=O)n1CC1CC1" in the records?
Ans. > 30 µM

Qu. Which value of IC50 has been reported for "CCNCc1nc2c(O)c(Cl)cc(Cl)c2c(=O)n1CC" in the records?
Ans. > 30 µM

Qu. Which value of IC50 has been reported for "Br.CCNCc1nc2c(O)c(Cl)cc(Cl)c2c(=O)n1C" in the records?
Ans. > 30 µM

Qu. Which value of IC50 has been reported for "CCn1c(CN(C)C)nc2c(O)c(Cl)cc(Cl)c2c1=O.Cl" in the records?
Ans. > 20 µM

###

test system: 6-OHDA lesion of the SNpc; assay: Parkinson's disease in vivo: 6-OHDA model; design: species or system mouse; conditions: 6-OHDA lesioned mice; SSV = 0%; dose not given
I would appreciate it if you labelled entries satisfied when Behaviour (Rotation) % SSV is 50% or higher, otherwise not satisfied.

Qu. Please indicate if the recorded Behaviour (Rotation) % SSV for N[C@@H](Cc1ccc(O)c(O)c1)C(=O)O [L-DOPA, L-3,4-dihydroxyphenylalanine] meets or exceeds 50%.
Ans. satisfied

Qu. Please indicate if the recorded Behaviour (Rotation) % SSV for "CCn1c(CN(C)C)nc2c(O)c(Cl)cc(Cl)c2c1=O.Cl" meets or exceeds 50%.
Ans. satisfied

Qu. Please indicate if the recorded Behaviour (Rotation) % SSV for "CCNCc1nc2c(O)c(Cl)cc(Cl)c2c(=O)n1CC" meets or exceeds 50%.
Ans. not satisfied

Qu. Please indicate if the recorded Behaviour (Rotation) % SSV for C#CCN(C)[C@H](C)Cc1ccccc1 [Selegiline, reference compound] meets or exceeds 50%.
Ans. satisfied

Qu. Please indicate if the recorded Behaviour (Rotation) % SSV for "C#CCN(C)Cc1nc2c(O)c(Cl)cc(Cl)c2c(=O)n1CC1CC1" meets or exceeds 50%.
Ans. not satisfied

Qu. Please indicate if the recorded Behaviour (Rotation) % SSV for "Br.CCNCc1nc2c(O)c(Cl)cc(Cl)c2c(=O)n1C" meets or exceeds 50%.
Ans. not satisfied

###

assay: PK Studies in the Rat; assay type: in vivo; details: plasma, route and dose not given, read-out: AUC0-24 h (converted)
valueType: AUC(0-t)
Number first, unit second: that is the form wanted.

Qu. Which value of AUC(0-t) has been reported for "CNCc1nc2c(O)c(Cl)cc(Cl)c2c(=O)n1C" in the records?
Ans. 14.1 µM·h

###

assay: Plasma Protein Binding, rat; type: in vitro ADME
For each of the molecules below, state its fraction unbound.

Qu. Which value of fraction unbound has been reported for "CN(C)Cc1nc2c(O)c(Cl)cc(Cl)c2c(=O)n1C" in the records?
Ans. 0.074 to 0.116

Qu. Which value of fraction unbound has been reported for "CCn1c(CN(C)C)nc2c(O)c(Cl)cc(Cl)c2c1=O.Cl" in the records?
Ans. 0.052 to 0.055

###

test: Mouse Plasma Conc.; assay type: in vivo; settings: given as 'Up to'
For each of the compounds below, state its Mouse Plasma Conc..

Qu. Which value of Mouse Plasma Conc. has been reported for "CCN(CC)Cc1nc2c(O)c(Cl)cc(Cl)c2c(=O)n1CC1CC1" in the records?
Ans. ≤ 9074 ng/mL

Qu. Which value of Mouse Plasma Conc. has been reported for "CCN(CC)Cc1nc2c(O)c(Cl)cc(Cl)c2c(=O)n1C" in the records?
Ans. ≤ 1356.2 ng/mL

Qu. Which value of Mouse Plasma Conc. has been reported for "CCn1c(CN2CCCCC2)nc2c(O)c(Cl)cc(Cl)c2c1=O" in the records?
Ans. ≤ 1585.2 ng/mL

Qu. Which value of Mouse Plasma Conc. has been reported for "CCn1c(CN(C)C)nc2c(O)c(Cl)cc(Cl)c2c1=O.Cl" in the records?
Ans. ≤ 975.9 ng/mL

Qu. Which value of Mouse Plasma Conc. has been reported for "CN(C)Cc1nc2c(O)c(Cl)cc(Cl)c2c(=O)n1CC1CC1" in the records?
Ans. ≤ 1166.6 ng/mL

###

molecular target: CYP2C19 (Homo sapiens, UniProt P33261); construct: using a specific substrate approach in human liver microsomes; from tissue; host or cells: human liver microsomes; experiment: CYP450 isoform inhibition, recombinant enzymes, analysis by LCMS: CYP2C19; format: in vitro ADME
Sequence (P33261 whole entry, canonical isoform): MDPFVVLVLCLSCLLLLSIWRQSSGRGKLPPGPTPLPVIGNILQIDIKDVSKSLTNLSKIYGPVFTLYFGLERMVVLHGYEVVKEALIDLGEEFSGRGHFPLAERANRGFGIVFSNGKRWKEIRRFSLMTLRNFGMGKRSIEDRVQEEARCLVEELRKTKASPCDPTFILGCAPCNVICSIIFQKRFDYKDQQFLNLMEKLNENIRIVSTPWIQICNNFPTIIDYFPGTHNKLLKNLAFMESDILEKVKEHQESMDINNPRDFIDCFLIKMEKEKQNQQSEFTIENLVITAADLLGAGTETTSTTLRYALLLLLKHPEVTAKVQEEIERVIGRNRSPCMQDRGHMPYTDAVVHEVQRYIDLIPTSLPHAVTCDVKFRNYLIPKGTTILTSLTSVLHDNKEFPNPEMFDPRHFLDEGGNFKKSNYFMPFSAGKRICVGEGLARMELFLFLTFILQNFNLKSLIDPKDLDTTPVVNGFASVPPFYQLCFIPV
valueType: IC50

Qu. Which value of IC50 has been reported for CNCc1nc2c(O)c(Cl)cc(Cl)c2c(=O)n1C [Compound F4161] in the records?
Ans. > 40 µM

###

experiment: In Vitro Metabolism in Human Liver Microsomes (predicted EH); assay type: in vitro ADME
valueType: Metabolism (Predicted EH), Microsomes: Human

- compound: "C#CCN(C)Cc1nc2c(O)c(Cl)cc(Cl)c2c(=O)n1CC1CC1 [Compound F4387]"
  recordedValue: 0.75
- compound: "CNCc1nc2c(O)c(Cl)cc(Cl)c2c(=O)n1C [Compound F4161]"
  recordedValue: "Human <0.2"
- compound: "Br.CCNCc1nc2c(O)c(Cl)cc(Cl)c2c(=O)n1C [Compound F4496]"
  recordedValue: "Human <0.2"

###

test: Plasma Protein Binding, human; format: in vitro ADME
valueType: fraction unbound
Hey, just send me the number, nothing else.

Qu. Which value of fraction unbound has been reported for "CNCc1nc2c(O)c(Cl)cc(Cl)c2c(=O)n1C" in the records?
Ans. 0.043

Qu. Which value of fraction unbound has been reported for "CCn1c(CN(C)C)nc2c(O)c(Cl)cc(Cl)c2c1=O.Cl" in the records?
Ans. 0.029

Qu. Which value of fraction unbound has been reported for "CN(C)Cc1nc2c(O)c(Cl)cc(Cl)c2c(=O)n1CC1CC1" in the records?
Ans. 0.005
